Hey, just so you know, these numbers are from patent US12043622B2.

Assay: Solubility in water at room temperature
Format: physicochemical
Details: thermodynamic from solid
Consider the following molecules and their measured solubility readings.

Illustrative cases are given below, each with its answer.
CCN1CCN(Cc2ccc(Nc3ncc(F)c(-c4cc(F)c5nc6n(c5c4)[C@H](C)CCC6)n3)nc2)CC1.CS(=O)(=O)O [crystal form D of compound III]	50 to 100 mg/mL
CCN1CCN(Cc2ccc(Nc3ncc(F)c(-c4cc(F)c5nc6n(c5c4)[C@H](C)CCC6)n3)nc2)CC1.O=C(O)C(O)C(O)C(=O)O [crystal form A of compound II]	100 to 200 mg/mL

Here is another molecule to look at.
What value of solubility has been recorded for this entry: CCN1CCN(Cc2ccc(Nc3ncc(F)c(-c4cc(F)c5nc6n(c5c4)[C@H](C)CCC6)n3)nc2)CC1
< 1 mg/mL

====

Assay: Pharmacokinetic experiment in SD rats, plasma by LC-MS/MS
Assay type: in vivo
Conditions: both sexes, Sprague-Dawley (SD), rat, PO, 30 mg/kg
Assay metric: AUC(0-t) (ng·h/mL)

[I] CCN1CCN(Cc2ccc(Nc3ncc(F)c(-c4cc(F)c5nc6n(c5c4)[C@H](C)CCC6)n3)nc2)CC1.O=C(O)C(O)C(O)C(=O)O [crystal form A of compound II]
[II] CCN1CCN(Cc2ccc(Nc3ncc(F)c(-c4cc(F)c5nc6n(c5c4)[C@H](C)CCC6)n3)nc2)CC1
In terms of reported AUC(0-t), does I or II have the smaller number? Mark your selection by writing its label.
II

====

Target: CDK2/cyclin E (Homo sapiens, UniProt P24941)
Assay: CDK subtype selectivity, 33P-ATP radiometric kinase assay
Format: biochemical
Settings: read-out: IC50 CDK2/cyclin E
Assay metric: IC50 (nM)
Give just the number in nM; leave the unit off.

Given the entry CCN1CCN(Cc2ccc(Nc3ncc(F)c(-c4cc(F)c5nc6n(c5c4)[C@H](C)CCC6)n3)nc2)CC1 [compound 2b] , report its measured IC50.
441
